Target of assay: T1, P4A
T1 chain: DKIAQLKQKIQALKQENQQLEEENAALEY
Assay overview: two-hybrid library CCNG1;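 note: natural log of median RNA to DNA barcode read ratio; higher means stronger binding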
# interaction score values compiled below
Form rule: numeric answer, no unit written next to it.

These recorded examples may help you get a feel for the data.
# Binder, interaction score
rows = [
    ("DENQALEQEIAQLEQEIAALEQKNAQLKY [P11A]", 1.99),
    ("DKIAQLKQKIQALKQENQQLEEENAALEY [P4A]", -2.18),
    ("DEIQALEEENAQLEQENAALEEEIAQLEY [P1A]", -0.87),
]

Ask: Which interaction score value belongs to DKIAQLKEKNAALKEKNQQLKEKIQALKY [P2A] ?
Result: -1.63

Ask: Which interaction score value belongs to DKNAQLKEKIAALKEKIQQLKEENQALEY [P12A] ?
Result: -1.48

Ask: Which interaction score value belongs to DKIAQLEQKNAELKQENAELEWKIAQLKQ [4H2518-bA] ?
Result: -1.32

Ask: Which interaction score value belongs to DKNAQLKEENAALEEKIQQLKEKIQALKY [P10A] ?
Result: -0.619

Ask: Which interaction score value belongs to DEIQQLEEEIAQLEQKNAALKEKNQALKY [P3A] ?
Result: 2.6
